System: COLO 205
Assay: NCI tumour cell line growth inhibition, 48 h
The source made the active and inactive calls. Rule as the data show it: active = GI50 up to about 1.1 µM and inactive = higher.
Recorded Endpoint: GI50

// known answers, use as guide
Molecule | Recorded Endpoint | Result
COc1ccc(-c2c3c(n(C4OC(CO)C(O)C(O)C4O)c(=S)c2C#N)CCC3)cc1 (stereo unspecified) | GI50 | 68.9 µM (inactive)
CC(C)(C)NCC(O)c1ccc(O)c(CO)n1 (stereo unspecified) | GI50 | > 100 µM (inactive)
Cc1ccc(C)c(N2C(=O)C(=O)C(c3nc4ccccc4o3)/C(=N/N)C2=O)c1 (stereo unspecified) | GI50 | > 100 µM (inactive)
[N-]=[N+]=Nc1c(Cc2ccccc2)c(=O)oc2ccccc12 | GI50 | 36.9 µM (inactive)
N#C[C@H](C(=O)c1ccccc1F)c1nc2ccccc2[nH]1 | GI50 | > 100 µM (inactive)

API: the following record is the query input.
Request: Using the record for CC1C(=O)N(c2ccccc2)NC12CCCc1ccccc12 (stereo unspecified) , report its GI50.
Response: > 100 µM (inactive)

###

Test system: COLO 205
Experiment: NCI tumour cell line growth inhibition, 48 h
The source made the active and inactive calls. Rule as the data show it: active = GI50 up to about 1.1 µM and inactive = higher.
Write down the outcome that applies. Available outcomes: class 1 for active, class 0 for inactive

Answered examples (2):
Compound | Target System | Class Assignment
O=c1ncccn1[C@@H]1O[C@H](CO)[C@H](O)C1O (stereo not given in full) | COLO 205 | class 0
C=C1C(=O)O[C@H]2C[C@@]3(C)[C@H](O)CCC(=C)[C@@H]3[C@@H](OC(C)=O)[C@H]12 | COLO 205 | class 1

Please examine the following record next.
Request: Dear all, I need the recorded test outcome for "O=C(NC12CC3CC(CC(C3)C1)C2)C(=O)c1c[nH]c2ccc(Cl)cc12" , thank you.
Response: class 0

###

System: DLD-1
Assay: NCI tumour cell line growth inhibition, 48 h
The source made the active and inactive calls. Rule as the data show it: active = GI50 up to about 1.1 µM and inactive = higher.
GI50 by entry:

Molecule | GI50
COc1cc(CCC(=O)NS(=O)(=O)c2ccccc2)cc(OC)c1OC | > 100 µM (inactive)
CCCCC(C)C(OC(=O)CC(CC(=O)O)C(=O)O)C(CC(C)CC(O)CCCCC(O)CC(O)C(C)N)OC(=O)CC(CC(=O)O)C(=O)O (stereo unspecified) | > 100 µM (inactive)
C=C1C(=O)C23C(O)CC4C(C)(C)CCC(O)C4(C)C2CC(OC(C)=O)C1[C@H]3O (stereo partly specified) | 1.69 µM (inactive)
COc1ccc(/C=C/C(=O)c2c(-c3ccccc3)nn(C)c(=O)c2N2CC2C)cc1 (stereo unspecified) | 26.1 µM (inactive)
COc1ccc2c(c[n+](C)c3c4cc5c(cc4ccc23)OCO5)c1OC [CHELERYTHRINE CHLORIDE] | 1.7 µM (inactive)

Request: Using the record for "O=C(O)CN(c1ccccc1)S(=O)(=O)c1ccc([N+](=O)[O-])cc1" , report its GI50.
Response: > 100 µM (inactive)

###

System: M14
Test: NCI tumour cell line growth inhibition, 48 h
Activity calls are given as the source filed them. Rule as the data show it: active = GI50 up to about 1.1 µM and inactive = higher.
GI50 by entry:

Molecule | Target System | GI50
CCCCCCOP(=O)(OCCCCCC)OC(C(=O)OC)C(F)(F)F (stereo not drawn) | M14 | > 100 µM (inactive)
Cc1c(C(=O)C(=O)c2ccccc2)c(C)c(C(=O)C(=O)c2ccccc2)c(C)c1C(=O)C(=O)c1ccccc1 | M14 | > 100 µM (inactive)
N#C/C(=C/NC(=S)Nc1ccc(S(N)(=O)=O)cc1)C(N)=O | M14 | > 100 µM (inactive)
C=CC(=O)NC(O)(C(=O)OCC)C(F)(F)F (stereo not drawn) | M14 | > 100 µM (inactive)
COC1=CC(=O)c2ccc(C(C)C)cc2C1(C)C1=NC(C)(C)CO1 (stereo not drawn) | M14 | > 100 µM (inactive)

Request: Using the record for "CN(C)CCCN1CCC2(CCC(C(C)(C)C)CC2)CC1" , report its GI50.
Response: 1.85 µM (inactive)

Request: Using the record for "Nc1nc(N)c(N=O)c(Nc2ccc(Br)cc2)n1" , report its GI50.
Response: 16.2 µM (inactive)

###

GI50 by entry:
Test system: SK-MEL-28
Assay: NCI tumour cell line growth inhibition, 48 h
The source made the active and inactive calls. Cut-off read from the data, not from the text of the source: active = GI50 up to about 1.1 µM and inactive = higher.

// known answers, use as guide
Compound | Recorded Endpoint | Result
COc1cc(/C=C\c2ccc(OC(C)=O)cc2)cc(OC)c1OC | GI50 | 1.44 µM (inactive)
CC(=O)N1c2ccccc2C23CCN4CC5=CCOC(O)C(C5CC42)C13 (stereo unspecified) | GI50 | > 100 µM (inactive)
C=CCC1=C2CCCCC2CCC1=O (stereo unspecified) | GI50 | > 100 µM (inactive)
COC(=O)C1CC2C=CC1N(C(=O)OCc1ccccc1)C2 (stereo unspecified) | GI50 | > 100 µM (inactive)
O=C1c2ccccc2C(=O)c2cc3c(cc21)C[S+]([O-])C3 | GI50 | > 100 µM (inactive)
Cc1nc(SCC(N)=O)c2sc(=S)n(-c3ccccc3)c2n1 | GI50 | > 10 µM (inactive)

Request: Using the record for "CC1=CC2=C(OCO1)C(=O)c1ccccc1C2=O" , report its GI50.
Response: 4.86 µM (inactive)

Request: Using the record for "Oc1c2cc(Cl)cc1COCc1cc(Cl)cc(c1O)COCc1cc(Cl)cc(c1O)COC2" , report its GI50.
Response: > 100 µM (inactive)

Request: Using the record for "CCn1c(=O)nc2n(-c3ccccc3)c3ccccc3nc-2c1=O" , report its GI50.
Response: 32.8 µM (inactive)

Request: Using the record for "CC(=O)Nc1ccc(-c2nc3ccccc3s2)cc1I" , report its GI50.
Response: > 100 µM (inactive)

Request: Using the record for "O=C1CC(=O)N(CCc2ccccc2)S(=O)(=O)N1CCc1ccccc1" , report its GI50.
Response: 28.1 µM (inactive)

###

System: MDA-N
Test: NCI tumour cell line growth inhibition, 48 h
Activity calls are given as the source filed them. Rule as the data show it: active = GI50 up to about 1.1 µM and inactive = higher.
GI50 by entry:

Compound | Target System | GI50
O=c1cc(-c2ccccc2)c2ccc(O)c(CN(CCCl)CCCl)c2o1 | MDA-N | 17.6 µM (inactive)
O=CN1CCN(C(=O)c2ccc(Cl)cc2Cl)C1=S | MDA-N | 64.6 µM (inactive)
COC1CC(NC(=O)C(F)(F)F)C(OC(C)=O)C(C)O1 (stereo unspecified) | MDA-N | > 100 µM (inactive)
C=C1C(=O)C23C(O)CC4C(C)(C)CCC(O)C4(C)C2CC(OC(C)=O)C1[C@H]3O (stereo partly specified) | MDA-N | 7.87 µM (inactive)
COc1ccc(/C=C(/C)[N+](=O)[O-])cc1 | MDA-N | 2.05 µM (inactive)

API: the following record is the query input.
Request: Using the record for "O=C(O)CCC(O)=C1S(=O)(=O)OCCOS1(=O)=O" , report its GI50.
Response: > 100 µM (inactive)

###

Test system: NCI-H226
Assay: NCI tumour cell line growth inhibition, 48 h
Active and inactive are the calls of the source. Rule as the data show it: active = GI50 up to about 1.1 µM and inactive = higher.
GI50 by entry:

Molecule | GI50
CS(=O)(=O)OCCN1CCN(C(=O)c2cccc3c(Nc4ccc(S(=O)(=O)N=C(N)N)cc4)c4ccccc4nc23)CC1 | > 100 µM (inactive)
CC1CC[C@@H](C(C)C)[C@H](Oc2nnc(C3OC(CO)C(O)C3O)o2)C1 (stereo not given in full) | > 100 µM (inactive)
O=P(c1ccccc1)(c1ccccc1)c1ccc2c(c1)OCCOCCOCCOCCO2 | > 100 µM (inactive)
COC1=CC(=O)c2ccc(C(C)C)cc2C1(C)C1=NC(C)(C)CO1 (stereo not given) | > 100 µM (inactive)

Request: Using the record for S=C1N=C2C(=N1)n1c3c(c4ccccc41)CCCC23 (stereo not given) , report its GI50.
Response: 34.9 µM (inactive)

###

Tested on: HCT-116
Test: NCI tumour cell line growth inhibition, 48 h
Calls of active or inactive are those of the source. No stated cut-off is given here; in the data, active = GI50 up to about 1.1 µM and inactive = higher.
GI50 by entry:

// known answers, use as guide
Compound | Target System | GI50
CN(C)c1ccc(/C=C2/SC(=S)NC2=O)cc1 | HCT-116 | 33.2 µM (inactive)
CC1=C(C(=O)Nc2ccccc2)C(c2ccc([N+](=O)[O-])cc2)C(C(=O)Nc2ccccc2)=C(C)N1 | HCT-116 | 18.5 µM (inactive)

Request: Using the record for COC(=O)C1C2CC3C1C3C2C(=O)OC (stereo unspecified) , report its GI50.
Response: > 100 µM (inactive)

Request: Using the record for "Cc1c(C(=O)NCCO)[n+]([O-])c2cc(Cl)ccc2[n+]1[O-]" , report its GI50.
Response: > 100 µM (inactive)

Request: Using the record for "C(=N\OCCc1ccccc1)/c1cccnc1" , report its GI50.
Response: > 100 µM (inactive)

Request: Using the record for "CCC[C@@H](O)C[C@@H]1CCC[C@H](C[C@@H](O)CC)N1C" , report its GI50.
Response: > 100 µM (inactive)

Request: Using the record for CN1C(c2ccccc2)CS(=O)(=O)CS1(=O)=O (stereo unspecified) , report its GI50.
Response: > 100 µM (inactive)

Request: Using the record for CCSC(=O)/C=C1\CN(C(=O)OC(C)(C)C)C1C(=O)OC(C)(C)C (stereo unspecified) , report its GI50.
Response: 1.55 µM (inactive)

Request: Using the record for "CCCCCN(CCCCC)C(=O)[C@@H](CCC(=O)O)NC(=O)c1cc2ccccc2[nH]1" , report its GI50.
Response: 17.9 µM (inactive)

Request: Using the record for CCOC1NC(=O)Oc2cc3ccccc3cc21 (stereo unspecified) , report its GI50.
Response: 35 µM (inactive)

Request: Using the record for "Cc1nn(-c2ccccc2)c2nc3ccc(Cl)cc3c(-c3ccccc3)c12" , report its GI50.
Response: > 100 µM (inactive)

Provenance of the data: ChEMBL document CHEMBL1201862
